Target: TRPC6 homomer (Homo sapiens, UniProt Q9Y210)
Sequence (Q9Y210 whole entry): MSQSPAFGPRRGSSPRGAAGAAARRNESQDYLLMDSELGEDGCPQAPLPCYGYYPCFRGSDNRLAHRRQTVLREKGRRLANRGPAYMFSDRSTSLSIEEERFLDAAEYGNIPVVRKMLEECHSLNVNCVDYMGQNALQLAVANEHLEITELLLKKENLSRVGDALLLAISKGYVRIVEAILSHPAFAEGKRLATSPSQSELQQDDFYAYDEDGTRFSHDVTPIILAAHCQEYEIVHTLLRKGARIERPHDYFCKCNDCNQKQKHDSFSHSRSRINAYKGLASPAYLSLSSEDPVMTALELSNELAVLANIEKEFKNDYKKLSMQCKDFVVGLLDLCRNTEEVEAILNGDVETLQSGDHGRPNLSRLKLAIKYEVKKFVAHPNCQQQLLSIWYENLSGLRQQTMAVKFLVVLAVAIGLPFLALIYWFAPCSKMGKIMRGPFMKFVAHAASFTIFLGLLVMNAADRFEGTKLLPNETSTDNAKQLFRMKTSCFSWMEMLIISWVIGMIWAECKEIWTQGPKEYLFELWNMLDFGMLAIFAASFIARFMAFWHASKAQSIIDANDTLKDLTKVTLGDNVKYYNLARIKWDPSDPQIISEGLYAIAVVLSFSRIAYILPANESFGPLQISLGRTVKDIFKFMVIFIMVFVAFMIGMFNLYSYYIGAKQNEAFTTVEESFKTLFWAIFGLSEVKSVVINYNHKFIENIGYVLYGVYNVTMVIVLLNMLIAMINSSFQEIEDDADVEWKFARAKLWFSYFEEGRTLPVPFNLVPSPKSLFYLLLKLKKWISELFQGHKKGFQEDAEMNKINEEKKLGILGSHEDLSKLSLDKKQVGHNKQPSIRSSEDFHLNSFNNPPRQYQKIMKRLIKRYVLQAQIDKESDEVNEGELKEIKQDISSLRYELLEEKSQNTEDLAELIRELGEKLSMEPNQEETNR
Assay: Whole-cell patch-clamp, inhibition of TRPC6 homomer
pIC50: −log10 of the molar value.
measurement.type: pIC50

Supply reported pIC50 belonging to this molecule: CN(C)CCCCn1c(=O)c2c(nc(Oc3cccc(Cl)c3)n2Cc2ccc(Cl)cc2)n(C)c1=O
< 5.00

* * *

Test: Pharmacokinetics in mouse after p.o. and i.v. administration
Type: in vivo
Conditions: po, 10 mg/kg; mouse p.o.; portal vein plasma
measurement.type: Tmax (min)
Express it in min; write the number only.

Supply reported Tmax belonging to this compound: CN(C)CCCCn1c(=O)c2c(nc(Oc3cccc(Cl)c3)n2Cc2ccc(Cl)cc2)n(C)c1=O
15

* * *

Assay: Pharmacokinetics in mouse after p.o. and i.v. administration
Assay type: in vivo
Settings: C57BL/6J, in vivo, po; mouse 10mg/kg p.o.; Mean
measurement.type: Tmax (h)
Express it in h; write the number only.

Supply reported Tmax belonging to this molecule: CN(C)CCCCn1c(=O)c2c(nc(Oc3cccc(Cl)c3)n2Cc2ccc(Cl)cc2)n(C)c1=O
1

* * *

Test: Pharmacokinetics in mouse after p.o. and i.v. administration
Type: in vivo
Settings: C57BL/6J, mouse, in vivo, po, 10 mg/kg, mouse 10mg/kg p.o.; Mean; read-out: MRTINF_obs
measurement.type: MRT inf (h)
Express it in h; write the number only.

Supply reported MRT inf belonging to this molecule: CN(C)CCCCn1c(=O)c2c(nc(Oc3cccc(Cl)c3)n2Cc2ccc(Cl)cc2)n(C)c1=O
5.27
